IC50 values by entry
ASSAYED TARGET: human CCR2 (Homo sapiens, UniProt P41597)
Sequence (P41597 1-360 isoform P41597-2): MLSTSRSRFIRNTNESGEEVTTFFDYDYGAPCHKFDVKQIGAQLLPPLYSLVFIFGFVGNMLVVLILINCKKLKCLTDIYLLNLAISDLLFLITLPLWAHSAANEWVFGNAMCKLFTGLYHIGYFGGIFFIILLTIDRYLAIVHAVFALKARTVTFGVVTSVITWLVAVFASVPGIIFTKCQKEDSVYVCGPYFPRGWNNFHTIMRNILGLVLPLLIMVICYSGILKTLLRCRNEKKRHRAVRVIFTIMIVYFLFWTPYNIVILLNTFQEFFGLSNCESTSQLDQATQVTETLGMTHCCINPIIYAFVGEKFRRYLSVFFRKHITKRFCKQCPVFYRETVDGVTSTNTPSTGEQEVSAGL
TEST NAME: Functional Ca2+ release test (B-1)
TEST PARAMETERS: Chem-1 cell line transfected with human CCR2; 50% inhibition of the MCP-1 effect, MCP-1 at EC50 (about 5 nM); in some cases means of several determinations

| SMILES TEXT | IC50 (nM) |
| --- | --- |
| O=c1[nH]c(-c2cccnc2)nc(C(F)(F)F)c1Cc1ccc(Cl)c(Cl)c1 | 35 |
| COc1cccnc1Nc1nc(C(F)(F)F)c(Oc2ccc(Cl)c(Cl)c2)c(=O)[nH]1 | 150 |
| Cc1ccc(-c2nc(C(F)(F)F)c(Oc3ccc(Cl)c(C(F)(F)F)c3)c(=O)[nH]2)nc1 | 0.7 |
| O=c1[nH]c(-c2n[nH]cc2Cl)nc(C(F)(F)F)c1Oc1ccc(Cl)c(Cl)c1 | 1.1 |
| O=c1[nH]c(-n2ncc3ncccc32)nc(C(F)(F)F)c1Oc1ccc(Cl)c(Cl)c1 | 9.9 |
| O=c1[nH]c(-n2cccn2)nc(C(F)(F)F)c1Cc1ccc(Cl)c(Cl)c1 | 1.8 |
| O=c1[nH]c(-c2cc(O)ccn2)nc(C(F)(F)F)c1Oc1ccc(Cl)c(C(F)(F)F)c1 | 46 |
| O=c1[nH]c(-c2cc(C3CC3)on2)nc(C(F)(F)F)c1Oc1ccc(Cl)c(Cl)c1 | 7.2 |
| Nc1ncc(-c2nc(C(F)(F)F)c(Oc3ccc(Cl)c(C(F)(F)F)c3)c(=O)[nH]2)cn1 | 23 |
| O=c1[nH]c(-c2n[nH]cc2Cl)nc(C(F)(F)F)c1Cc1ccc(Cl)c(C(F)(F)F)c1 | 1.5 |
| O=c1[nH]c(-c2ncc(C(F)(F)F)cc2Cl)nc(C(F)(F)F)c1Oc1ccc(Cl)c(Cl)c1 | 4.8 |
| O=c1[nH]c(-c2cnccn2)nc(C(F)(F)F)c1Oc1ccc(Cl)c(Cl)c1 | 2.1 |
